Where do these numbers come from? They come from the NIST ThermoML archive (doi:10.1021/je800999s).

assay_name: molar heat capacity at constant pressure
settings: 318.15 K; 101 kPa; Liquid; Large sample (1 g) DSC
Entries annotated with measured molar heat capacity at constant pressure
# unit: J/K/mol | format: bare number

See these solved cases before continuing.
CN1CCCC1=O :: 169
O=CN1CCOCC1 :: 189
O=S1(=O)CCCC1 :: 186

Q. Query: molar heat capacity at constant pressure; subject: COCCOCCOCCOC
A. 368

###

assay_name: molar heat capacity at constant pressure
settings: 338.15 K; 101 kPa; Liquid; Large sample (1 g) DSC
measurement_kind: molar heat capacity at constant pressure (J/K/mol)
# unit: J/K/mol | format: bare number

COCCOCCOCCOC :: 375

Q. Query: molar heat capacity at constant pressure; subject: O=S1(=O)CCCC1
A. 193

Q. # iterate: O=CN1CCOCC1
A. 197

Q. # iterate: CN1CCCC1=O
A. 175

###

Entries annotated with measured molar heat capacity at constant pressure
assay_name: molar heat capacity at constant pressure
settings: 303.15 K; 101 kPa; Liquid; Large sample (1 g) DSC
Numbers after ± are expanded uncertainties.
Just the number plus its unit, please.

See these solved cases before continuing.
O=CN1CCOCC1 :: 185 ± 8 J/K/mol
COCCOCCOCCOC :: 359 ± 15 J/K/mol
CN1CCCC1=O :: 166 ± 7 J/K/mol

Q. Query: molar heat capacity at constant pressure; subject: O=S1(=O)CCCC1
A. 182 ± 8 J/K/mol

###

assay_name: molar heat capacity at constant pressure
settings: 333.15 K; 101 kPa; Liquid; Large sample (1 g) DSC
Entries annotated with measured molar heat capacity at constant pressure
# unit: J/K/mol | format: bare number

Q. Query: molar heat capacity at constant pressure; subject: O=CN1CCOCC1 [N-formylmorpholine]
A. 195

###

assay_name: molar heat capacity at constant pressure
settings: 323.15 K; 101 kPa; Liquid; Large sample (1 g) DSC
measurement_kind: molar heat capacity at constant pressure (J/K/mol)
# unit: J/K/mol | format: bare number

Q. Query: molar heat capacity at constant pressure; subject: O=S1(=O)CCCC1
A. 188

Q. # iterate: CN1CCCC1=O
A. 170

Q. # iterate: O=CN1CCOCC1
A. 191

Q. # iterate: COCCOCCOCCOC
A. 370

###

assay_name: molar heat capacity at constant pressure
settings: 333.15 K; 101 kPa; Liquid; Large sample (1 g) DSC
measurement_kind: molar heat capacity at constant pressure (J/K/mol)
# unit: J/K/mol | format: bare number

See these solved cases before continuing.
CN1CCCC1=O :: 174
COCCOCCOCCOC :: 373

Attention now turns to another entry.
Q. Query: molar heat capacity at constant pressure; subject: O=S1(=O)CCCC1
A. 191
